Biological target: xanthine oxidoreductase (XOR) (Mus musculus)
Construct: NOS 1^−/− cardiac homogenates as source of the enzyme; from tissue; host or cells: heart homogenate of NOS1-/- mice, passed through Sephadex G-25
Sequence (Q00519 whole entry): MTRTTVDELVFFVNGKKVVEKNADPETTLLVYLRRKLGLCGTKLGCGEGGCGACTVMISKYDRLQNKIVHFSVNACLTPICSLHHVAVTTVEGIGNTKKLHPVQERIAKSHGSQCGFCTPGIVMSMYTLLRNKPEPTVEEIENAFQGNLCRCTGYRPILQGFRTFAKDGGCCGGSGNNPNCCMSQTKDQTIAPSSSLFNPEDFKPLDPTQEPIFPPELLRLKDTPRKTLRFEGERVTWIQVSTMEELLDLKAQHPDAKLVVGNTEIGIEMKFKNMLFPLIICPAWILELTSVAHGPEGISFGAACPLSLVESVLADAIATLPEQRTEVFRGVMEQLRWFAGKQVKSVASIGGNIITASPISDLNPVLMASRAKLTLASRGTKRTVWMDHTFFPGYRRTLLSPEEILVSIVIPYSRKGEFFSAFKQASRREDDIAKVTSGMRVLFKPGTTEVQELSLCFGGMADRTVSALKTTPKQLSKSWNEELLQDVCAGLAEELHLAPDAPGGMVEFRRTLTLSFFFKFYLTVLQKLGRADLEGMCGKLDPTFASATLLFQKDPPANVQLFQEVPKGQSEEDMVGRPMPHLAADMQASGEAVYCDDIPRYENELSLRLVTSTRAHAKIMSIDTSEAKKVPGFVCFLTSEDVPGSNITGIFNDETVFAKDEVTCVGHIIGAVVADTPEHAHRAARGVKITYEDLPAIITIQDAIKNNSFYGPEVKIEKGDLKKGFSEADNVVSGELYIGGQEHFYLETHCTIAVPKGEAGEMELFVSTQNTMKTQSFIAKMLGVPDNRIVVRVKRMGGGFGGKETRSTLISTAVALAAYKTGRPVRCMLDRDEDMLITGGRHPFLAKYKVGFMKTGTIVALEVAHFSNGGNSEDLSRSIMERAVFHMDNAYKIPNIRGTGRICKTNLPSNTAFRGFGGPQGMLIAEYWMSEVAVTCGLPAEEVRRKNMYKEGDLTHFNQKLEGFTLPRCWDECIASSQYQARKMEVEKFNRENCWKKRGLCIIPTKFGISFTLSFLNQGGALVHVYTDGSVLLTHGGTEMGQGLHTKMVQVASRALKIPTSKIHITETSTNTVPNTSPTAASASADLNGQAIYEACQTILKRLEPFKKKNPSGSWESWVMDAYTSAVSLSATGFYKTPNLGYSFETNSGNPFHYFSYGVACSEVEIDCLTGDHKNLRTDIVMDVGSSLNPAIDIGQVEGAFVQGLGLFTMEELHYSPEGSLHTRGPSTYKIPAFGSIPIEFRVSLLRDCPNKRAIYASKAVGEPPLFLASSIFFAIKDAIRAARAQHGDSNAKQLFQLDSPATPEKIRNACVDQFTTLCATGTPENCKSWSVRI
Experiment: Xanthine oxidoreductase activity, Amplex red superoxide production in heart homogenates
Format: biochemical
Conditions: NOS1−/− cardiac homogenates, xanthine 0.1 mmol/L; read-out: IC50, Amplex red XOR activity
QUANTITY KIND: IC50 (µM)
The answer is to be given in µM; state only the numeric part.

Input: Given the entry NNc1nncc2ccccc12 [hydralazine] , report its measured IC50.
Output: 700

* * *

Biological target: NADPH oxidase (NOX)
Assay: NOX-dependent superoxide production, lucigenin chemiluminescence in heart homogenates
Assay type: biochemical, mouse
Conditions: NOS1−/− cardiac homogenates, NADPH 0.3 mmol/L
Procedure: NOX-dependent superoxide production: NADPH-dependent superoxide production was measured in heart homogenates using lucigenin (5 μmol/L)-enhanced chemiluminescence (β-NADPH 300 μmol/L; room temperature) on a microplate luminometer (Veritas, Turner Biosystems, Sunnyvale, Calif.). Briefly, proteins were diluted in modified Krebs-HEPES buffer. NADPH and lucigenin were added to wells just before reading. Chemiluminescence readings were expressed as integrated light units. […]
QUANTITY KIND: IC50 (µM)
All answers are understood in µM, so give the number only.

Input: State the recorded IC50 for this entry: O=[N+]([O-])OCC(CO[N+](=O)[O-])O[N+](=O)[O-] [nitroglycerin]
Output: 13

* * *

Molecular target: xanthine oxidoreductase (XOR) (Mus musculus)
Construct: NOS 1^−/− cardiac homogenates as source of the enzyme; from tissue; host or cells: heart homogenate of NOS1-/- mice, passed through Sephadex G-25
Assay: Xanthine oxidoreductase activity, Amplex red superoxide production in heart homogenates
Type: biochemical
QUANTITY KIND: IC50 (µM)
Supply the numeric figure in µM, leaving out any unit text.

Input: Need IC50 of O=[N+]([O-])OCC(CO[N+](=O)[O-])O[N+](=O)[O-] , thanks.
Output: 1000

From: patent US20100316622A1
